Catalogue of molecules with associated TGI
Test system: OVCAR-3 ovarian
EXPERIMENTAL PROTOCOL: NCI tumour cell line growth inhibition, 48 h

// solved cases for TGI follow
MOLECULE | MEASURED PARAMETER | OBSERVED RESULT
COC1CC(OC2C(C)OC(OC3C(C)OC(OC4C(C)OC(O[C@H]5CC[C@@]6(C)C(=CC[C@]7(O)[C@@H]6C[C@@H](OC(=O)/C=C(\C)C(C)C)[C@@]6(C)[C@]7(O)CC[C@@]6(O)C(C)=O)C5)CC4OC)CC3OC)CC2OC)OC(C)C1O (stereo not given in full) | TGI | > 12.5 µM
O=C1C2c3[nH]c4ccccc4c3C3CCCC3C2C(=O)N1c1ccccc1 (stereo not given) | TGI | > 100 µM
O=C(Oc1ccc(S(=O)(=O)F)cc1F)c1ccccc1Cl | TGI | 75.6 µM
Cc1ccc(C(=O)Nc2ccccc2)cc1N=NN(C)C | TGI | > 100 µM
O=C(CC1=Nc2nnc(CCCCCCCc3nnc4n3C(=O)C(CC(=O)c3ccccc3)=N4)n2C1=O)c1ccccc1 | TGI | > 100 µM
O=C1Nc2cc(Cl)ccc2/C1=C\c1c(-c2ccc(F)cc2)nc2ccccn12 | TGI | 2.97 µM

# input Reported TGI for C/C(=N\NC1=NCCN1)c1cn(C2=NCCN2)nc1C : what is it?
# output > 100 µM

# input Reported TGI for CCN1CCN(c2cc(C)nc(N(CCNc3ccnc4cc(Cl)ccc34)Cc3ccc4c(c3)OCO4)n2)CC1 : what is it?
# output 2.64 µM

# input Reported TGI for c1ccc2c(c1)nc1n2sc2nc3ccccc3n21 : what is it?
# output > 100 µM

# input Reported TGI for C/C(=N\O)c1ccc(Nc2nc3ccccc3c3occc23)cc1 : what is it?
# output > 100 µM
